Below is a list of entries, each paired with its recorded log10 half-life at 5 μM value.
Assay: In vitro plasma stability, dog plasma
Type: in vitro ADME
Settings: male, pH 7.4, 5 μM, 37° C., sampling 0-360 minutes, read-out: T1/2 Dog
Kindly note that the scale is log10 and the underlying half-life at 5 μM is in min.

1. CN1N=C(c2ccc([S+](C)[O-])c(F)c2)C(C)(NO)C1=O (stereo not drawn): 1.52
2. CN1N=C(c2ccc(S(=O)(=O)c3ccccc3)cc2)C(C)(NO)C1=O (stereo not drawn): 1.46
3. CO/N=C(\C)C1(NO)C(=O)N(C)N=C1c1ccc(C(=O)N(C)C)cc1 (stereo not drawn): 0.78

API: the following record is the query input.
// CO/N=C(\C)C1(NO)C(=O)N(c2ccccc2)N=C1C(C)(C)C (stereo not drawn) : log10 half-life at 5 μM value = 1.11

###

Assay: In vitro plasma stability, rat plasma
Format: in vitro ADME
Conditions: male, pH 7.4, 5 μM, 37° C., sampling 0-360 minutes, read-out: T1/2 Rat
Assay Metric: half-life at 5 μM
I'd appreciate it if you included the unit after the number.

1) COc1ccc(C2=NN(C)C(=O)C2(C)NO)cc1F (centres unmarked) [Compound 19]: 1.5 h
2) CCC1(NO)C(=O)N(C)N=C1c1ccccc1F (centres unmarked) [Compound 31]: 1.1 h
3) CN1N=C(c2ccc(SC(F)(F)F)cc2)C(C)(NO)C1=O (centres unmarked) [Compound 67]: 1.77 h

// CC(C)S(=N)(=O)c1ccc(C2=NN(C)C(=O)C2(C)NO)cc1 (centres unmarked) [Compound 120] : half-life at 5 μM value = 0.933 h

// CN1N=C(c2ccc(S(C)(=O)=O)c(F)c2)C(C)(NO)C1=O (centres unmarked) [Compound 40] : half-life at 5 μM value = 0.65 h

###

Below is a list of entries, each paired with its recorded half-life at 5 μM value.
Assay: In vitro plasma stability, dog plasma
Format: in vitro ADME
Conditions: male, pH 7.4, 5 μM, 37° C., sampling 0-360 minutes, read-out: T1/2 Dog
Enter your answer as a number in min; do not include the unit.

1) COc1ccc(C2(NO)C(=O)N(C)N=C2C)cc1OC (centres unmarked) [Compound 73]: 13

// CN1N=C(c2ccc(SC(F)(F)F)cc2)C(C)(NO)C1=O (centres unmarked) [Compound 67] : half-life at 5 μM value = 78

// CCC1(NO)C(=O)N(C)N=C1c1ccccc1F (centres unmarked) [Compound 31] : half-life at 5 μM value = 201

// CN1N=C(c2ccc(C(C)(C)C)cc2)C(C)(NO)C1=O (centres unmarked) [Compound 91] : half-life at 5 μM value = 226

// CN1N=C(c2ccccc2C(F)(F)F)C(C)(NO)C1=O (centres unmarked) [Compound 60] : half-life at 5 μM value = 49

###

Assay: Nitroxyl production via 1H NMR protocol using TXPTS (NMR half-lives)
Format: physicochemical
Conditions: phosphate buffer containing TXPTS (HNO trap); pH 7.4, 0.25 M phosphate buffer, 5 mM TXPTS, 1 mM compound, 37° C., spectra over 8 hours; read-out: NMR-T1/2
Below is a list of entries, each paired with its recorded log10(half-life at 1 mM) value.
Kindly note that the scale is log10 and the underlying half-life at 1 mM is in h.

Solved entries (count: 3):
1) CN1N=C(c2ccc(S(C)(=O)=O)cc2)C(C)(NO)C1=O (stereo not drawn): 0.80
2) CN1N=C(c2ccccc2)C(C)(NO)C1=O (stereo not drawn): 1.23
3) CN1N=C(c2ccc(Cl)cc2)C(C)(NO)C1=O (stereo not drawn): 1.11

// CC1=NN(C)C(=O)C1(NO)c1ccccc1 (stereo not drawn) : log10(half-life at 1 mM) value = -0.25

// CN1N=C(c2ccccc2F)C(C)(NO)C1=O (stereo not drawn) : log10(half-life at 1 mM) value = 0.60

// CN1N=C(c2ccccc2Cl)C(C)(NO)C1=O (stereo not drawn) : log10(half-life at 1 mM) value = -0.08

###

Assay: In vitro plasma stability, human plasma
Type: in vitro ADME
Conditions: male, pH 7.4, 5 μM, 37° C., sampling 0-360 minutes, read-out: T1/2 Human
Friendly reminder: half-life at 5 μM below 60 min is true, at or above is false.

Solved entries:
1. CC1=NN(C)C(=O)C1(NO)c1cccc(C)c1 (centres unmarked): true
2. CCOC1=NN(c2ccc(Br)cc2)C(=O)C1(NO)/C(C)=N/OC (centres unmarked): true

Now consider a different molecule.
Determine whether this molecule shows half-life at 5 μM lower than 60 min (ties excluded): Cc1cc(C)cc(C2=NN(C)C(=O)C2(C)NO)c1 (centres unmarked) false

###

Assay: In vitro plasma stability, rat plasma
Type: in vitro ADME
Conditions: male, pH 7.4, 5 μM, 37° C., sampling 0-360 minutes, read-out: T1/2 Rat
Below is a list of entries, each paired with its recorded half-life at 5 μM value.

1) Cc1cc(C)cc(C2=NN(C)C(=O)C2(C)NO)c1 (centres unmarked): 34 min
2) Cc1cc(C2=NN(C)C(=O)C2(C)NO)ccc1S(C)(=O)=O (centres unmarked): 64 min
3) C/C(=N\Oc1ccc(Br)cc1)C1(NO)C(=O)N(C)N=C1C(C)(C)C (centres unmarked): 22 min
4) CSc1ccc(C2=NN(C)C(=O)C2(C)NO)cc1 (centres unmarked): 300 min
5) CCOC1=NN(C)C(=O)C1(NO)/C(C)=N/OC (centres unmarked): 18 min
6) CN1N=C(c2ccc(F)cc2)C(C)(NO)C1=O (centres unmarked): 78 min
7) CN1N=C(c2cccc(C(F)(F)F)c2)C(C)(NO)C1=O (centres unmarked): 44 min
8) CN1N=C(c2ccccc2)C(NO)(c2ccccc2)C1=O (centres unmarked): 8 min

API: the following record is the query input.
// CN1N=C(c2ccc(C(=O)O)cc2)C(C)(NO)C1=O (centres unmarked) : half-life at 5 μM value = 243 min

###

Assay: Solid-state stability at 40° C. and 75% RH (purity by HPLC)
Type: physicochemical
Details: solid powder, 1 Month, in % (unit assumed)
Below is a list of entries, each paired with its recorded Solid-state stability, purity by HPLC, 1 Month value.

1. CN1N=C(c2ccc(Cl)cc2)C(C)(NO)C1=O (stereo not shown): 99.2
2. CN1N=C(c2ccccc2Cl)C(C)(NO)C1=O (stereo not shown): <10
3. CC1=NN(C)C(=O)C1(NO)c1ccccc1 (stereo not shown): <10

// CN1N=C(c2ccccc2)C(C)(NO)C1=O (stereo not shown) : Solid-state stability, purity by HPLC, 1 Month value = <10

###

Test: Solid-state stability at 40° C. and 75% RH (purity by HPLC)
Format: physicochemical
Conditions: solid powder, 0 Months (initial)
Below is a list of entries, each paired with its recorded Solid-state stability, purity by HPLC, 0 Months value.
Enter your answer as a number in %; do not include the unit.

Solved entries (count: 4):
1. CC1=NN(C)C(=O)C1(NO)c1ccccc1 (centres unmarked): 99.8
2. CN1N=C(c2ccccc2)C(C)(NO)C1=O (centres unmarked): 98.3
3. CN1N=C(c2ccc(S(C)(=O)=O)cc2)C(C)(NO)C1=O (centres unmarked): 99.3
4. CN1N=C(c2ccc(Cl)cc2)C(C)(NO)C1=O (centres unmarked): 100

API: the following record is the query input.
// CN1N=C(c2ccccc2Cl)C(C)(NO)C1=O (centres unmarked) : Solid-state stability, purity by HPLC, 0 Months value = 91.2

###

Experiment: In vitro plasma stability, dog plasma
Type: in vitro ADME
Details: male, pH 7.4, 5 μM, 37° C., sampling 0-360 minutes, read-out: T1/2 Dog
We'd kindly ask you to apply these half-life at 5 μM classes: low: < 20 min; medium: ≥ 20 min and < 50 min; high: ≥ 50 min

Solved entries:
1) CN1N=C(c2ccccc2F)C(C)(NO)C1=O (centres unmarked): medium
2) CN1N=C(c2ccccc2[S+](C)[O-])C(C)(NO)C1=O (centres unmarked): medium
3) CO/N=C(\C)C1(NO)C(=O)N(c2ccccc2)N=C1C(C)C (centres unmarked): low
4) CN1N=C(c2ccc(F)cc2Cl)C(C)(NO)C1=O (centres unmarked): medium

Assign a bin to C[C@H](NC(=O)c1ccc(C2=NN(C)C(=O)C2(C)NO)cc1)C(=O)O (some centres unmarked) high

Assign a bin to CN1N=C(c2ccc(S(=O)(=O)N(C)C)cc2)C(C)(NO)C1=O (centres unmarked) medium

Assign a bin to CN1N=C(c2ccc(S(C)(=N)=O)cc2)C(C)(NO)C1=O (centres unmarked) medium

Assign a bin to CC1=NN(c2ccccc2)C(=O)C1(NO)c1ccccc1 (centres unmarked) low

Assign a bin to COCCN(C)c1cc(C2=NN(C)C(=O)C2(C)NO)ccc1S(C)(=O)=O (centres unmarked) high

Assign a bin to CC1(NO)C(=O)N(c2ccccc2)N=C1C(F)(F)F (centres unmarked) high

Assign a bin to CSc1ccc(C2=NN(C)C(=O)C2(C)NO)cc1 (centres unmarked) high

Assign a bin to CC1=NN(C)C(=O)C1(NO)c1cccc(F)c1 (centres unmarked) low

Assign a bin to CC1(NO)C(=O)N(c2ccc(Br)cc2)N=C1c1ccccc1 (centres unmarked) high

Assign a bin to CC1=NN(C)C(=O)C1(NO)c1ccc(F)cc1 (centres unmarked) medium

Assign a bin to CN1N=C(c2ccc(S(C)(=O)=NC(=O)C(F)(F)F)cc2)C(C)(NO)C1=O (centres unmarked) low

Assign a bin to CO/N=C(\C)C1(NO)C(=O)N(c2ccccc2)N=C1Sc1ccccc1 (centres unmarked) low

Assign a bin to CN1N=C(c2ccc(S(=O)(=O)N3CCC(F)(F)CC3)cc2)C(C)(NO)C1=O (centres unmarked) medium
